Source: the supplement of paper PMC10307832

I'd be grateful if you could share measured relative viability for these entries.
# System: NCI-H1395
# Assay remarks: relative viability (nuclei count vs DMSO), 5 days (fraction); higher = more cells survive
# Condition notes: first compound 0.4 µM
Give bare numbers.

[[record]]
compound = "C[C@@H]1CN(CC(=O)Nc2ccc3c(c2)Cc2cccc(-c4cc(=O)cc(N5CCOCC5)o4)c2S3)C[C@H](C)O1 + O=C(CCCCCCC(=O)Nc1ccccc1)NO [Vorinostat] (partner 1 µM)"
experimental_readout = "relative viability"
measured_result = 0.597


The record that follows has no relative viability shown yet.
Quick note, relative viability for COc1cc(N2CCC(C(N)=O)CC2)ccc1Nc1nc(N)c(Cl)c(Nc2ccccc2S(=O)(=O)C(C)C)n1 [HG-5-88-01] + Cc1nc(NC(=O)N2CCC[C@H]2C(N)=O)sc1-c1ccnc(C(C)(C)C(F)(F)F)c1 [Alpelisib] (partner 2 µM) landed at 1.1

====

# System: RERF-LC-KJ
# Assay remarks: relative viability (nuclei count vs DMSO), 5 days (fraction); higher = more cells survive
# Condition notes: first compound 1.265 µM
Experimental readout: relative viability
One number for each entry.

Consider the worked cases shown below.
[[record]]
compound = "Clc1ccc(Nc2nnc(Cc3ccncc3)c3ccccc23)cc1 [Vatalanib] + Cc1nc(Nc2ncc(C(=O)Nc3c(C)cccc3Cl)s2)cc(N2CCN(CCO)CC2)n1 [Dasatinib] (partner 0.075 µM)"
target_or_system = "RERF-LC-KJ"
measured_result = 0.623

[[record]]
compound = "Clc1ccc(Nc2nnc(Cc3ccncc3)c3ccccc23)cc1 [Vatalanib] + CC(C)C[C@H](NC(=O)[C@H](Cc1ccccc1)NC(=O)c1cnccn1)B(O)O [Bortezomib] (partner 0.002 µM)"
target_or_system = "RERF-LC-KJ"
measured_result = 0.904

[[record]]
compound = "Clc1ccc(Nc2nnc(Cc3ccncc3)c3ccccc23)cc1 [Vatalanib] + CS(=O)(=O)CCNCc1ccc(-c2ccc3ncnc(Nc4ccc(OCc5cccc(F)c5)c(Cl)c4)c3c2)o1 [Lapatinib] (partner 2 µM)"
target_or_system = "RERF-LC-KJ"
measured_result = 0.775


The record that follows has no relative viability shown yet.
Measured relative viability (RERF-LC-KJ), entry COc1cc(N2CCC(C(N)=O)CC2)ccc1Nc1nc(N)c(Cl)c(Nc2ccccc2S(=O)(=O)C(C)C)n1 [HG-5-88-01] + O=C(c1cc(Cc2n[nH]c(=O)c3ccccc23)ccc1F)N1CCN(C(=O)C2CC2)CC1 [Olaparib] (partner 8 µM) : 0.884

====

# System: NCI-H2126
# Assay remarks: relative viability (nuclei count vs DMSO), 5 days (fraction); higher = more cells survive
# Condition notes: first compound 0.08 µM
Experimental readout: relative viability
Give bare numbers.

Consider the worked cases shown below.
[[record]]
compound = "CCCCCCCCCCCC1=C(O)C(=O)C=C(O)C1=O [Embelin] + NC(=O)Nc1cc(-c2cccc(F)c2)sc1C(=O)N[C@H]1CCCNC1 [AZD7762] (partner 0.2 µM)"
measured_result = 0.936

[[record]]
compound = "CCCCCCCCCCCC1=C(O)C(=O)C=C(O)C1=O [Embelin] + Cc1nc(Nc2ncc(C(=O)Nc3c(C)cccc3Cl)s2)cc(N2CCN(CCO)CC2)n1 [Dasatinib] (partner 0.075 µM)"
measured_result = 0.615

[[record]]
compound = "CCCCCCCCCCCC1=C(O)C(=O)C=C(O)C1=O [Embelin] + CC1(C)CCC(c2ccc(Cl)cc2)=C(CN2CCN(c3ccc(C(=O)NS(=O)(=O)c4ccc(N[C@H](CCN5CCOCC5)CSc5ccccc5)c(S(=O)(=O)C(F)(F)F)c4)cc3)CC2)C1 [Navitoclax] (partner 0.5 µM)"
measured_result = 0.879

[[record]]
compound = "CCCCCCCCCCCC1=C(O)C(=O)C=C(O)C1=O [Embelin] + N=C(N)NC(=N)NCCc1ccccc1 [Phenformin] (partner 250 µM)"
measured_result = 0.556


Count: 5. Required value per item: relative viability.
1. CCCCCCCCCCCC1=C(O)C(=O)C=C(O)C1=O [Embelin] + C[C@]1(O)C[C@@H](c2nc(-c3ccc4ccc(-c5ccccc5)nc4c3)c3c(N)nccn32)C1 [Linsitinib] (partner 1 µM)
2. CCCCCCCCCCCC1=C(O)C(=O)C=C(O)C1=O [Embelin] + CS(=O)(=O)N1CCN(Cc2cc3nc(-c4cccc5[nH]ncc45)nc(N4CCOCC4)c3s2)CC1 [Pictilisib] (partner 1 µM)
3. CCCCCCCCCCCC1=C(O)C(=O)C=C(O)C1=O [Embelin] + CC(=O)Nc1cccc(-n2c(=O)n(C3CC3)c(=O)c3c(Nc4ccc(I)cc4F)n(C)c(=O)c(C)c32)c1 [Trametinib] (partner 0.02 µM)
4. CCCCCCCCCCCC1=C(O)C(=O)C=C(O)C1=O [Embelin] + O=C(CCCCCCC(=O)Nc1ccccc1)NO [Vorinostat] (partner 1 µM)
5. CCCCCCCCCCCC1=C(O)C(=O)C=C(O)C1=O [Embelin] + Nc1ncn([C@H]2C[C@H](O)[C@@H](CO)O2)c(=O)n1 [Decitabine] (partner 2 µM)

## Output
0.714
0.482
0.495
0.803
0.514
